- TEST METHOD NOTES: Cytotoxicity against Sprague-Dawley rat Cerebral cortex neuron assessed as cell viability at 25 uM incubated for 24 hrs by MTT assay relative to control
- Assay type: tissue-based
- TEST CONTEXT: cerebral cortex neurons, read-out: Activity
MEASURED QUANTITY: viability at 24 h, 25 µM

compound="O=C(CCCCC1CCSS1)N1CCN(Cc2ccc(F)cc2)CC1 (centres undefined)" measured_quantity="viability at 24 h, 25 µM" result=96%
compound="O=C(CCCCC1CCSS1)OC1CCN(Cc2ccc(F)cc2)CC1 (centres undefined)" measured_quantity="viability at 24 h, 25 µM" result=97.1%
compound=O=C(CCCC[C@@H]1CCSS1)OC1CCN(Cc2ccccc2)CC1 measured_quantity="viability at 24 h, 25 µM" result=96.6%
compound="COc1ccc(CN2CCN(C(=O)CCCCC3CCSS3)CC2)cc1 (centres undefined)" measured_quantity="viability at 24 h, 25 µM" result=95.3%
compound="O=C(CCCCC1CCSS1)OC1CCN(Cc2ccccc2)CC1 (centres undefined)" measured_quantity="viability at 24 h, 25 µM" result=98.1%
compound="COc1ccc(CN2CCC(OC(=O)CCCCC3CCSS3)CC2)cc1 (centres undefined)" measured_quantity="viability at 24 h, 25 µM" result=96.2%
compound="O=C(CCCCC1CCSS1)N1CCN(Cc2ccccc2)CC1 (centres undefined)" measured_quantity="viability at 24 h, 25 µM" result=96.8%
compound="O=C(O)CCCC[C@@H]1CCSS1 [THIOCTIC ACID]" measured_quantity="viability at 24 h, 25 µM" result=97.2%
compound=O=C(CCCC[C@@H]1CCSS1)N1CCN(Cc2ccccc2)CC1 measured_quantity="viability at 24 h, 25 µM" result=96.6%

====

- TEST METHOD NOTES: Cytotoxicity against Sprague-Dawley rat Cerebral cortex neuron assessed as cell viability at 100 uM incubated for 24 hrs by MTT assay relative to control
- Format: tissue-based
- TEST CONTEXT: cerebral cortex neurons, read-out: Activity
MEASURED QUANTITY: viability at 24 h, 100 µM (%)

compound="O=C(CCCCC1CCSS1)OC1CCN(Cc2ccc(F)cc2)CC1 (centres undefined)" measured_quantity="viability at 24 h, 100 µM" number=95.6
compound=O=C(CCCC[C@@H]1CCSS1)N1CCN(Cc2ccccc2)CC1 measured_quantity="viability at 24 h, 100 µM" number=95.8
compound="O=C(O)CCCC[C@@H]1CCSS1 [THIOCTIC ACID]" measured_quantity="viability at 24 h, 100 µM" number=95.9
compound="O=C(CCCCC1CCSS1)N1CCN(Cc2ccc(F)cc2)CC1 (centres undefined)" measured_quantity="viability at 24 h, 100 µM" number=96.7
compound=O=C(CCCC[C@@H]1CCSS1)OC1CCN(Cc2ccccc2)CC1 measured_quantity="viability at 24 h, 100 µM" number=96.2
compound="O=C(CCCCC1CCSS1)N1CCN(Cc2ccccc2)CC1 (centres undefined)" measured_quantity="viability at 24 h, 100 µM" number=95.4
compound="COc1ccc(CN2CCN(C(=O)CCCCC3CCSS3)CC2)cc1 (centres undefined)" measured_quantity="viability at 24 h, 100 µM" number=89.3
compound="O=C(CCCCC1CCSS1)OC1CCN(Cc2ccccc2)CC1 (centres undefined)" measured_quantity="viability at 24 h, 100 µM" number=97.8
compound="COc1ccc(CN2CCC(OC(=O)CCCCC3CCSS3)CC2)cc1 (centres undefined)" measured_quantity="viability at 24 h, 100 µM" number=91.2
